Cited source: PubChem BioAssay AID1159580

// normalized growth lookup, one value per entry
# assay.details: chemical genetic growth profiling, strain panel (AID 1159580);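 note: tested at 20 µM; growth read once vehicle control cultures reached saturation at 30 °C; 1 = growth at the plate median or of vehicle wells; lower values mean less growth of the strain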
# assay.context: S. cerevisiae deletion strains, growth OD, locus YOR083W, strain WHI5, hits give low values
Screen size: about 5,500 compounds; about 2,000 (36%) were called active. Roughly 18% stayed inconclusive and do not appear here. This is one part of the list.

compound	normalized growth
CC(C)Oc1ccc2c(=O)cc(-c3ccccc3)oc2c1	0.928
O=C1CCc2cc(OCCCCc3nnnn3C3CCCCC3)ccc2N1	0.987
CN(C)CCC=C1c2ccccc2CCc2ccccc21	0.975
COc1c2c(cc3c1OCO3)CC[N+](C)=C2	0.97
COc1ccc(-c2cc(=O)c3ccccc3o2)cc1	0.71
COc1cc2c(cc1OC)-c1cc3ccc(OC)c(OC)c3c[n+]1CC2	0.999
FC(F)(F)C(Cl)Br (configuration not stated)	1.01
COc1ccc2cc3[n+](cc2c1OC)CCc1cc2c(cc1-3)OCO2	0.994
COc1ccc(-c2coc3cc(OC(C)=O)cc(OC(C)=O)c3c2=O)cc1	0.976
O=c1c(-c2ccc(O)cc2)coc2cc(O)cc(O)c12	0.997
C[n+]1cc2c3c(ccc2c2ccc4cc5c(cc4c21)OCO5)OCO3	0.475
CN(C)CC/C=C1/c2ccccc2COc2ccccc21	0.99
